This collection of values is drawn from patent US20190255073A1.

system: P. aeruginosa (1051575); test: MIC determination by microplate dilution, P. aeruginosa animal strain; format: cell-based, Pseudomonas aeruginosa; conditions: Pseudomonas aeruginosa, Gram-negative, Mueller-Hinton medium, 24 h, 37° C.
Property label: MIC
Don't forget the unit after the value.

>  <Compound>
COC(=O)CC[C@@H](C)[C@H]1CCC2C3C(CC[C@@]21C)[C@@]1(C)CC[C@H](NCCNCCNCCNCCNCCN)CC1C[C@H]3O (stereo partly drawn)

>  <Test value>
31 mg/L

$$$$
>  <Compound>
COC(=O)CC[C@@H](C)[C@H]1CCC2C3CCC4C[C@@H](NCCCNCCCNCCCN)CC[C@]4(C)C3C[C@H](O)[C@@]21C (stereo partly drawn) [Compound (3), methyl 3β-norsperminodeoxycholate]

>  <Test value>
2 mg/L

$$$$
>  <Compound>
CC(C)OC(=O)CC[C@@H](C)[C@H]1CCC2C3C(C[C@H](O)[C@@]21C)[C@@]1(C)CC[C@H](NCCCN(CCCN)CCCN)CC1C[C@H]3O (stereo partly drawn)

>  <Test value>
30 mg/L

$$$$
>  <Compound>
COC(=O)CC[C@@H](C)[C@H]1CCC2C3C(CC[C@@]21C)[C@@]1(C)CC[C@H](NCCNCCNCCNCCNCCN)CC1C[C@@H]3O (stereo partly drawn)

>  <Test value>
60 mg/L

$$$$
>  <Compound>
COC(=O)CC[C@@H](C)[C@H]1CCC2C3CCC4C[C@@H](NCCNCCNCCNCCNCCN)CC[C@]4(C)C3CC[C@@]21C (stereo partly drawn)

>  <Test value>
60 mg/L

$$$$

We next turn to a different compound, shown below.
# input Can you look up the measured MIC of CC(C)OC(=O)CC[C@@H](C)[C@H]1CCC2C3CCC4C[C@@H](NCCCNCCCNCCCN)CC[C@]4(C)C3CC[C@@]21C (stereo partly drawn) [Compound (15), isopropyl 3β-norsperminolithocholate] for me?
# output 2 mg/L

----------
Assignment: determine reported log10 of MIC for the given compounds.
test system: P. aeruginosa ATCC27853; assay: MIC determination by microplate dilution, P. aeruginosa human strain; type: cell-based, Pseudomonas aeruginosa; settings: Pseudomonas aeruginosa, ATCC27853, Gram-negative, Mueller-Hinton medium, 24 h, 37° C.
# log10 transformed; quantity=MIC; unit=µg/mL

Solved cases (3 shown):
>  <Compound>
CC(C)OC(=O)CC[C@@H](C)[C@H]1CCC2C3C(CC[C@@]21C)[C@@]1(C)CC[C@H](NCCCN(CCCN)CCCN)CC1C[C@H]3O (stereo partly drawn)

>  <log10 of MIC>
1.45

$$$$
>  <Compound>
COC(=O)CC[C@@H](C)[C@H]1CCC2C3CCC4C[C@@H](NCCCNCCCN)CC[C@]4(C)C3C[C@H](O)[C@@]21C (stereo partly drawn) [(4), methyl 3β-norspermidinodeoxycholate]

>  <log10 of MIC>
0.48

$$$$
>  <Compound>
COC(=O)CC[C@@H](C)[C@H]1CCC2C3C(CC[C@@]21C)[C@@]1(C)CC[C@H](NCCNCCNCCNCCNCCN)CC1C[C@H]3O (stereo partly drawn)

>  <log10 of MIC>
1.49

$$$$

Batch: log10 of MIC for all items listed.
1. CC(C)OC(=O)CC[C@@H](C)[C@H]1CCC2C3C(CC[C@@]21C)[C@@]1(C)CC[C@H](NCCCNCCCNCCCN)CC1C[C@@H]3O (stereo partly drawn) [(51), isopropyl 3β-norsperminoursodeoxycholate]
2. COC(=O)CC[C@@H](C)[C@H]1CCC2C3CCC4C[C@@H](NCCNCCNCCNCCNCCN)CC[C@]4(C)C3C[C@H](O)[C@@]21C (stereo partly drawn)
3. COC(=O)CC[C@@H](C)[C@H]1CCC2C3C(CC[C@@]21C)[C@@]1(C)CC[C@H](NCCCNCCCN)CC1C[C@@H]3O (stereo partly drawn) [(13), methyl 3β-norspermidinoursodeoxycholate]
4. COC(=O)CC[C@@H](C)[C@H]1CCC2C3CCC4C[C@@H](NCCCN(CCCN)CCCN)CC[C@]4(C)C3CC[C@@]21C (stereo partly drawn)

# output
[1.48, 0.90, 1.45, 1.45]
